Tested on: NCI-H460
Test: Cytotoxicity against human H460 cells assessed as cell growth inhibition after 72 hrs by MTT assay
Assay type: functional, cell-based
Settings: NCI-H460, 72 h
READOUT NAME: pIC50
Just so you know, pIC50 here is -log10 of the concentration in molar units; reply with that number alone.

Request: Form field: reported pIC50 of CCN(CC)CCCn1c(=O)c(=Cc2ccc(F)cc2F)s/c1=C1\C(=O)Nc2ccc(Cl)cc21 (mixture of isomers)
Response: 5.21

Request: Same again, this time with CN(C)CCn1c(=O)c(=Cc2ccc(O)cc2)s/c1=C1\C(=O)Nc2ccccc21 (mixture of isomers)
Response: 6.01

Request: Same again, this time with COc1ccc(OC)c(C=c2s/c(=C3\C(=O)Nc4ccccc43)n(CCN(C)C)c2=O)c1 (mixture of isomers)
Response: 4.20

Request: Same again, this time with COc1ccc(C=c2s/c(=C3\C(=O)Nc4ccc(Cl)cc43)n(CCN(C)C)c2=O)c(OC)c1 (mixture of isomers)
Response: 4.97
